- Tested on: Bacillus subtilis
- ASSAY_PROCEDURE: cleaved RNA product abundance (RNA/gDNA barcode ratio) relative to median wild-type variant (ratio to wild type); higher = more accumulation of the downstream cleavage product
- EXPERIMENTAL_PARAMETERS: experiment (reporter, strain, medium): exp 4a: truncated aprE reporter, strain BJT201 with 2% xylose (RNase J1 expressed); cleavage site: cggR-gapA (positions -7 to +36 mutated)
PROPERTY_LABEL: cleaved RNA product abundance

# SEQUENCE_RECORD, TARGET_OR_SYSTEM, cleaved RNA product abundance
records = [
    ("ACAGACGAAGGAGCCGCAAAGAAGTTATTAAGAGATGAATAATCCCTCAAAATAAATATCTCTCACTTATTTAAA", "Bacillus subtilis", 0.106),
]

### Prompt // query cleaved RNA product abundance value for entry `ACAGACGAAGGAGCCGCAATGAAGTTATTAAGGGATGAATAATCCCTCAAAATAAATATCTCTCACTTATTTAAA`
### Response 0.355

### Prompt Try the sequence `ACAGACGAAGGAGCCGCACAGAAGTTATTAAGGGATGAACAATCCCTCAATATAAATATCTCTCACTTATTTAAA`
### Response 0.614

### Prompt Try the sequence `ACAGACGAAGGAGCCGCAAAGAAGTTATTAAGTGATGAATAATCCCTCAATATAAATATCTCTCACTTATTTAAA`
### Response 0.126

### Prompt Try the sequence `ACAGACGAAGGAGCCGCAAAGAAGTTAATAAGGGATGAAAAATCCCTCAATATAAATATCTCTCACTTATTTAAA`
### Response 0.293

### Prompt Try the sequence `ACAGACGAAGGAGCCGCAAAGAAGTTATTAAAGGATGAAAAATCCCTCAATATAAATATCTCTCACTTATTTAAA`
### Response 0.183

### Prompt Try the sequence `ACAGACGAAGGAGCCGCAAAGAAGTTATTAAGGGATAAATACTCCCTCAATATAAATATCTCTCACTTATTTAAA`
### Response 0.534

### Prompt Try the sequence `ACAGACGAAGGAGCCGCAAAGAAGTTATTAAGGGACGAATATTCCCTCAATATAAATATCTCTCACTTATTTAAA`
### Response 0.525

### Prompt Try the sequence `ACAGACGAAGGAGCCGCAAAGAAGTTATTAAGGGACGAATAATCCCGCAATATAAATATCTCTCACTTATTTAAA`
### Response 0.132

### Prompt Try the sequence `ACAGACGAAGGAGCCGCAAACAAGTTATTAAGGGATGAATAATCCCTAAATATAAATATCTCTCACTTATTTAAA`
### Response 0.47

### Prompt Try the sequence `ACAGACGAAGGAGCCGCAAAGAAGTTATTAAGGGACGAATAATCCCTCAATATAAATTTCTCTCACTTATTTAAA`
### Response 0.559

### Prompt Try the sequence `ACAGACGAAGGAGCCGCAAAGAAGTTATTAAGGGATGAATAATCCCTCAAAATATATATCTCTCACTTATTTAAA`
### Response 0.304

### Prompt Try the sequence `ACAGACGAAGGAGCCGCAAAGAAGTTATTAAGGAATGACTAATCCCTCAATATAAATATCTCTCACTTATTTAAA`
### Response 0.103

### Prompt Try the sequence `ACAGACGAAGGAGCCGCAACGAAGTTATTAAGGGATGAATAATCTCTCAATATAAATATCTCTCACTTATTTAAA`
### Response 0.684

### Prompt Try the sequence `ACAGACGAAGGAGCCGCAAAGAAGTTAATAAGGGATGAATAATCCCTCAATATAAATCTCTCTCACTTATTTAAA`
### Response 0.218
